biological target: T1, IGF-IIE (amino acids 1-104 of pro-IGF-II) (human, UniProt P01344 25-128); test: SPR (Flexchip), Fab, 1st of duplicate
T1 construct: Biotinylated in the selections; also called IGF-IIE (104aa)
T1 sequence (P01344 25-128): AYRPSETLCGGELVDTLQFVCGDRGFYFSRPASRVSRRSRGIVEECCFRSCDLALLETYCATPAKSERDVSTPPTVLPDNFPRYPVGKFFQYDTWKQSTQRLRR
The binders listed here are annotated with their Kd.
Report the figure in nM without appending any unit label.

Inquiry: I am curious: what Kd value has been reported for M0072-C06 Fab (Fab, V domains shown, soluble Fab (sFab); also called R0032-A09) VH: EVQLLESGGGLVQPGGSLRLSCAASGFTFSAYIMTWVRQAPGKGLEWVSSISPSGGYTVYADSVKGRFTISRDNSKNTLYLQMNSLRAEDTAVYYCARDSGFGDPFDYWGQGTMVTVSS VL: DIQMTQSPSSLSASVGDRVTITCRASQSIRNYLNWYQQKPGKAPKLLIYAASKLEDGVPSRFSGSGTGTDFTLTIRSLQPEDFASYFCQQSYSSPGITFGPGTKVEIKR ?
Reply text: 0.52

Inquiry: Could you tell me which Kd is on file for M0070-H08 Fab (Fab, V domains shown, soluble Fab (sFab); also called R0032-A07) VH: EVQLLESGGGLVQPGGSLRLSCAASGFTFSRYWMIWVRQAPGKGLEWVSSIRSSGETKYADSVKGRFTISRDNSKNTLYLQMNSLRAEDTAVYYCARGPLSDYYDSSGYYFDAFDIWGQGTMVTVSS VL: DIQMTQSPSSLSASAGDRVTITCRASQSISSYLNWYQQKPGKAPNLLIYTTSNLQGGVPSRFSGSGSGTDFTLTISSLQPEDFATYYCQQGYSFPLTFGGGTKVEIKR ?
Reply text: 0.36

Inquiry: For the binder shown here, M0063-F02 Fab (Fab, V domains shown, soluble Fab (sFab); also called R0032-A01) VH: EVQLLESGGGLVQPGGSLRLSCAASGFTFSKYEMDWVRQAPGKGLEWVSVISSSGGGTIYADSVKGRFTISRDNSKNTLYLQMNSLRAEDTAMYYCARGRTLYGGAFDIWGQGTMVTVSS VL: DIQMTQSPSSLSASVGDRVTITCRASQPINTYLNWYQQRPGKAPRILIYTSSTLQSGVPSRFSGSGSGTDFTLTISSVQPEDFATYYCQQSYSFPLTFGGGTKVEIKR , give the reported Kd.
Reply text: 0.12
